Test target: Dual specificity tyrosine-phosphorylation-regulated kinase 2 (Homo sapiens)
Sequence (whole entry): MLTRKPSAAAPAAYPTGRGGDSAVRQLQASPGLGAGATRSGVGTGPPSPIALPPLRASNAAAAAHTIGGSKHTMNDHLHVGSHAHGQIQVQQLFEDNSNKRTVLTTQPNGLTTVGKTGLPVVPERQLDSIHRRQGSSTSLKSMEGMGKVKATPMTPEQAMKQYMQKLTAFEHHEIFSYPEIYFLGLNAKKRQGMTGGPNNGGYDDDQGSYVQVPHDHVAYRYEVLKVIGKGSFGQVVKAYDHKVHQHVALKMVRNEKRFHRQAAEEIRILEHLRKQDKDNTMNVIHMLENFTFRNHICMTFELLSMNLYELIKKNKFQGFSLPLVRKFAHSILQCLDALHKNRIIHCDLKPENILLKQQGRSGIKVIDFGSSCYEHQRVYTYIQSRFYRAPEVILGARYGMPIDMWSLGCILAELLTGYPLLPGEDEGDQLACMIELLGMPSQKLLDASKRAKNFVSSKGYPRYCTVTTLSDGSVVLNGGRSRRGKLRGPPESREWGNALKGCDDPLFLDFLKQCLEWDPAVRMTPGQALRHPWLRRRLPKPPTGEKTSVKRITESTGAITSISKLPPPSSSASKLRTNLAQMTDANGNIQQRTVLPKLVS
Measurement context: at 10 µM
Assay readout: residual activity
Please append the unit to your numeric answer.

*Q* Identify measured residual activity obtained with Dual specificity tyrosine-phosphorylation-regulated kinase 2 (Homo sapiens) for `O=C1NC(=O)/C(=C\c2ccc3nccnc3c2)S1` .
*A* -4%

*Q* State, for Dual specificity tyrosine-phosphorylation-regulated kinase 2 (Homo sapiens), measured residual activity of the molecule listed here: `Cc1ccc(S(=O)(=O)/C=C/C#N)cc1`
*A* 102%

*Q* Provide residual activity, tested on Dual specificity tyrosine-phosphorylation-regulated kinase 2 (Homo sapiens), for `CC#CC(=O)Nc1cc2c(Nc3ccc(F)c(Cl)c3)ncnc2cn1` .
*A* 93%

*Q* # return residual activity of `CCC(=O)Nc1ccc2ncnc(Nc3cccc(Br)c3)c2c1` (system: Dual specificity tyrosine-phosphorylation-regulated kinase 2 (Homo sapiens))
*A* 82%

*Q* Find residual activity for `O=Nc1c(-c2c(O)[nH]c3ccccc23)[nH]c2ccccc12` on Dual specificity tyrosine-phosphorylation-regulated kinase 2 (Homo sapiens) and write it down.
*A* 20%

*Q* Param request: residual activity | system Dual specificity tyrosine-phosphorylation-regulated kinase 2 (Homo sapiens) | item `Oc1ccc(-c2nc(-c3ccc(F)cc3)c(-c3ccncc3)[nH]2)cc1`
*A* 76%

*Q* Return reported residual activity for target or system Dual specificity tyrosine-phosphorylation-regulated kinase 2 (Homo sapiens), item `N#CC(C#N)=C(N)/C(C#N)=C/c1ccc(O)cc1` .
*A* 93%

*Q* Enter measured residual activity, system Dual specificity tyrosine-phosphorylation-regulated kinase 2 (Homo sapiens), for the molecule shown: `COc1cc2ncc(-c3ccccc3)nc2cc1OC`
*A* 99%

*Q* GET residual activity where system = Dual specificity tyrosine-phosphorylation-regulated kinase 2 (Homo sapiens) and item = `Cc1cncc2cccc(S(=O)(=O)N3CCCN(C(=O)CN)C[C@H]3C)c12`
*A* 94%

*Q* Print Dual specificity tyrosine-phosphorylation-regulated kinase 2 (Homo sapiens) residual activity for O=C1Nc2ccccc2/C1=C1/Nc2ccccc2/C1=N\OCCC(O)CO (stereo unspecified) .
*A* 52%

*Q* State the measured residual activity (Dual specificity tyrosine-phosphorylation-regulated kinase 2 (Homo sapiens)) of `O=C1NC(=O)c2c1c1c3ccccc3[nH]c1c1[nH]c3cc(Br)ccc3c21`
*A* 75%
